Measured TGI, listed per entry for reference.
Test system: SK-OV-3 ovarian
protocolSummary: NCI tumour cell line growth inhibition, 48 h

| molecule | targetDesc | TGI |
| --- | --- | --- |
| CC(=O)OC1CCCn2c1nc1c2C(=O)C(C)=C(N2CC2)C1=O (stereo unspecified) | SK-OV-3 ovarian | 0.965 µM |
| CC(=O)Oc1ccccc1/C=C/C(=O)/C=C/c1ccccc1OC(C)=O | SK-OV-3 ovarian | 13.6 µM |
| Clc1ccc2c(c1)N(CCCN1CCCC1)c1ccccc1S2 | SK-OV-3 ovarian | 19 µM |
| O=S(=O)(O)c1ccc(N=Nc2c(O)ccc3cc(Br)ccc23)cc1 | SK-OV-3 ovarian | > 100 µM |
| CC(C)(C)Nc1noc(=O)n1C(C)(C)C | SK-OV-3 ovarian | > 100 µM |
| CC1CC[C@@]2(OC1)OC1CC3C4CCC5C[C@@H](OC6OC(CO)C(OC7OC(CO)C(O)C(OC8OC(CO)C(O)C(OC9OC(CO)C(O)C(O)C9O)C8O)C7OC7OC(CO)C(O)C(O)C7O)C(O)C6O)[C@H](O)C[C@]5(C)C4CC[C@]3(C)C1[C@@H]2C (stereo partly specified) | SK-OV-3 ovarian | > 80.5 µM |
| O=c1ccn(C2OC(CO)C(O)C2[Se]c2ccccc2)c(=O)[nH]1 (stereo unspecified) | SK-OV-3 ovarian | > 100 µM |
| NCCN1C(=O)CN=C(c2ccc(Cl)cc2)c2cc(Cl)ccc21 | SK-OV-3 ovarian | 47.6 µM |
| CCOC(=O)c1cnc2n(c1=N)[C@H]1CCCC[C@@H]1N2 | SK-OV-3 ovarian | > 100 µM |
| CC(=O)NC1=C(NCCN(C)C)C(=O)c2ccccc2C1=O | SK-OV-3 ovarian | > 50 µM |
| CCN1C(=O)N(CC)C2Nn3c(s/c(=C\c4ccccc4Br)c3=O)=NC21 (stereo unspecified) | SK-OV-3 ovarian | 7.7 µM |
| CN(C)S(=O)(=O)/N=C/c1cccc(/C=N/S(=O)(=O)N(C)C)c1 | SK-OV-3 ovarian | > 100 µM |
| COc1ccc(C(SCC(N)C(=O)O)(c2ccccc2)c2ccccc2)cc1 (stereo unspecified) | SK-OV-3 ovarian | > 100 µM |
| c1ccc(CNCCCCNCCCNCc2ccccc2)cc1 | SK-OV-3 ovarian | > 100 µM |
| Cn1cc(C2=C(c3cn(C)c4c([N+](=O)[O-])cccc34)C(=O)NC2=O)c2ccccc21 | SK-OV-3 ovarian | > 25 µM |
| O=[N+]([O-])c1ccccc1N/N=C\c1c[nH]c2ccccc12 | SK-OV-3 ovarian | 98 µM |
| N/N=C(\C(=O)Nc1ccc(Cl)cc1Cl)C(c1cnc2ccccc2n1)[N+](=O)[O-] (stereo unspecified) | SK-OV-3 ovarian | > 100 µM |
| O=C1NC(=O)C2(CCCCCC2)N1 | SK-OV-3 ovarian | > 100 µM |
| CC(NC(=O)C(N)CC(=O)O)NC(=O)C1CCC1 (stereo unspecified) | SK-OV-3 ovarian | > 100 µM |
| COC(=O)/C=C1/CCC(C)(C(=O)NS(=O)(=O)c2ccc(C)cc2)C1(C)C (stereo unspecified) | SK-OV-3 ovarian | > 100 µM |
| CC(=O)Nc1ccc(-c2nc3ccccc3s2)cc1I | SK-OV-3 ovarian | 38.2 µM |
